System: NCI-H226 lung
method-notes: NCI tumour cell line growth inhibition, 48 h
Provide the reported TGI of each item.
Give bare numbers, in µM.

molecule | number
O=C(N/C(=C\c1ccc(/C=C(\NC(=O)c2ccccc2)c2nc3ccccc3s2)cc1)c1nc2ccccc2s1)c1ccccc1 | 34.3
COc1cccc(CCC(=O)c2cc3c(N)c(C(=O)Nc4cccc(Cl)c4C)sc3nc2C)c1 | 32.7
CCOC(=O)CCC(NC(=O)Cc1ccc(Oc2nc3ccccc3nc2-c2ccccc2)cc1)C(=O)OCC (stereo not given) | 78.9

Ask: May I ask what TGI has been recorded for COC1=C2C=[N+](C)C3C(=C2C=CC1OC)Cc1cc2c(cc13)OCO2 (stereo not given) ?
Reply: 38.4
